procedure-summary: Stability in human blood serum at 37 °C
Assay type: in vitro ADME
assay-setup: human, human blood serum diluted with RPMI-1640 medium
measured-parameter: half-life at 0.248 mM (min)
One number for each entry, in min.

Task: Look up and report measured half-life at 0.248 mM for this entry: CSc1nc(N)c2ncn([C@@H]3O[C@H](COP(=O)(O)OP(=O)(O)O)[C@@H](O)[C@H]3O)c2n1
Result: 1410

====

assay-system: alkaline phosphatase (Bos taurus)
Sequence (P19111 20-533): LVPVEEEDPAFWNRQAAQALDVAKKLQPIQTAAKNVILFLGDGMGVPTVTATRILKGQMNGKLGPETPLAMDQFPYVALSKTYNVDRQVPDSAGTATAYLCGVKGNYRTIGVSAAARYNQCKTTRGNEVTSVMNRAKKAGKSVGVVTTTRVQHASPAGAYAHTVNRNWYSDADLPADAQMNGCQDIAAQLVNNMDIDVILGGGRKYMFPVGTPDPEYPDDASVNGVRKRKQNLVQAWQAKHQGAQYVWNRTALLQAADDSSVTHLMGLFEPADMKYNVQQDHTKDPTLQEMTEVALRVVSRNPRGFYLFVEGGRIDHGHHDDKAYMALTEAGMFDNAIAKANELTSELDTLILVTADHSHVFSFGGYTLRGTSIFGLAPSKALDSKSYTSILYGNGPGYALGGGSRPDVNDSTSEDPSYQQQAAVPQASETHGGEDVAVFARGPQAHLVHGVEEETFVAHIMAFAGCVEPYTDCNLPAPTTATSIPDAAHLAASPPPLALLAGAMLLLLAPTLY
procedure-summary: Hydrolysis by alkaline phosphatase
assay-setup: bovine, calf intestine alkaline phosphatase, pH 9.8
measured-parameter: half-life at 2.58 mg/mL (h)
Numbers only, in h.

Task: Report half-life at 2.58 mg/mL, nothing else, for this molecule: Nc1ncnc2c1ncn2[C@@H]1O[C@H](COP(=O)(O)OP(=O)(O)OP(=O)(O)O)[C@@H](O)[C@H]1O
Result: 1.4
